Target: human EGF-R (Homo sapiens, UniProt P00533)
Construct: packaging line GP+E86)
Sequence (P00533 25-1210): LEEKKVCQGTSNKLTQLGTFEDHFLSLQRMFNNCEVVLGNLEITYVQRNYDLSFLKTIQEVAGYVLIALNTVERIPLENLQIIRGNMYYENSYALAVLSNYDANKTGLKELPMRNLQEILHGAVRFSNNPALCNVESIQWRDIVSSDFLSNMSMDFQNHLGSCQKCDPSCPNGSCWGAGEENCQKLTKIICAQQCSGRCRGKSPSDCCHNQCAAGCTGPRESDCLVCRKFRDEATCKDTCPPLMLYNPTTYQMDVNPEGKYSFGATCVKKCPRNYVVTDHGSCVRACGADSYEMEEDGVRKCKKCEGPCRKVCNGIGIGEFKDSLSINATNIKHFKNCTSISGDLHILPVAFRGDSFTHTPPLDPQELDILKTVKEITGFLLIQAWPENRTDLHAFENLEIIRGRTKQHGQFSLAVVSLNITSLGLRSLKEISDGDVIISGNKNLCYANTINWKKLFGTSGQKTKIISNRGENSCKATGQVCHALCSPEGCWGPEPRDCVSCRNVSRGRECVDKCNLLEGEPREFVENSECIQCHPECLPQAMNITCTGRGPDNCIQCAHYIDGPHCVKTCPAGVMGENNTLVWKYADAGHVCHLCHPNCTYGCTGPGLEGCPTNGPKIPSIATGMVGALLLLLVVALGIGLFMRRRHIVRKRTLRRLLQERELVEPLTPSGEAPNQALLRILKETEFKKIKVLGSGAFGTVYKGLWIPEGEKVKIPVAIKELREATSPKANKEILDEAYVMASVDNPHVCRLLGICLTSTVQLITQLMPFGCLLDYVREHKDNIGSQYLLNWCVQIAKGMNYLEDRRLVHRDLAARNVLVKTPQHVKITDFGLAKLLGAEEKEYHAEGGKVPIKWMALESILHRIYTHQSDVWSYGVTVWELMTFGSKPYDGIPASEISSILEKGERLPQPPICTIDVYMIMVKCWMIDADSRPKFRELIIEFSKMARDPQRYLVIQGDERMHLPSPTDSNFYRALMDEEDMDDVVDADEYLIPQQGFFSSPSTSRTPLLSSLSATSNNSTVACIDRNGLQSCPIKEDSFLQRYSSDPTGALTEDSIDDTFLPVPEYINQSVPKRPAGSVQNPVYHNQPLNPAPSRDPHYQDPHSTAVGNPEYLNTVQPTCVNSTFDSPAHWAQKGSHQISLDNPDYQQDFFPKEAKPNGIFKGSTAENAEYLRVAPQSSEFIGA
Assay explanation: Inhibition of EGF-dependent proliferation of F/L-HERc cells (Cell Titer 96 Aqueous Non-Radioactive Cell Proliferation Assay)
Measurement parameters: F/L-HERc cells (murine IL-3-dependent line expressing human EGF-R), stimulated with EGF 20 ng/ml, 48 hours at 37° C., relative cell number as % of control
Consider the following compounds; for each one, report its log10 IC50.
Transform log10 | Measure IC50 | Unit nM

## Input Consider the compound CCOC(=O)CN(CCOc1cc2c(Nc3cccc(Br)c3)ncnc2cc1OC)CC(=O)OCC [3(2)] . State its measured log10 IC50.
## Output 1.85

## Input Consider the compound COC(=O)CN1CCN(CCCOc2cc3c(Nc4ccc(F)c(Cl)c4)ncnc3cc2OC)CC1 [Example 1] . State its measured log10 IC50.
## Output 1.66

## Input Consider the compound CCOC(=O)CN(C)CCCOc1cc2c(Nc3ccc(F)c(Cl)c3)ncnc2cc1OC [Example 2] . State its measured log10 IC50.
## Output 2.36

## Input Consider the compound CCOC(=O)CN(C)CCOc1cc2c(Nc3cccc(Br)c3)ncnc2cc1OC [3(1)] . State its measured log10 IC50.
## Output 2.00

## Input Consider the compound COC(=O)[C@@H]1CCCN1CCCOc1cc2c(Nc3cccc(Br)c3)ncnc2cc1OC [2(1)] . State its measured log10 IC50.
## Output 1.59

## Input Consider the compound CCOC(=O)CN1CCN(CCOc2cc3c(Nc4cccc(Br)c4)ncnc3cc2OC)CC1 [Example 3] . State its measured log10 IC50.
## Output 1.65

## Input Consider the compound CCOC(=O)CN1CCC[C@H]1COc1cc2c(Nc3cccc(Br)c3)ncnc2cc1OC [1(2)] . State its measured log10 IC50.
## Output 1.30

## Input Consider the compound CCOC(=O)CN1CCN(CC(O)COc2cc3c(Nc4cccc(Br)c4)ncnc3cc2OC)CC1 (stereo not drawn) [Example 4] . State its measured log10 IC50.
## Output 1.52

## Input Consider the compound COC(=O)CC(CC(=O)OC)N1CCN(CCOc2cc3c(Nc4cccc(Br)c4)ncnc3cc2OC)CC1 [3(4)] . State its measured log10 IC50.
## Output 1.89
